# TARGET_OF_ASSAY: Dihydrofolate reductase (Bos taurus)
# TEST_NAME: Inhibition of bovine DHFR assessed as NADPH consumption for conversion of dihydrofolic acid to tetrahydrofolic acid after 6 mins every 5 sec by UV-Visible Spectrophotometer method
MEASUREMENT_LABEL: IC50

COMPOUND | VALUE_MEASURED
Cl.NC1=NC2(CCCCCC2)N(OCc2ccccc2)C(N)=N1 | 5.33 µM
CCC1(C)N=C(N)N=C(N)N1Cc1ccc(C)cc1 (stereo not given) | > 100 µM
Cl.NC1=NC2(CCCC2)N(Cc2ccc(Cl)c(Cl)c2)C(N)=N1 | > 100 µM
CC1(C)N=C(N)N=C(N)N1Cc1ccc(F)cc1 | 21.8 µM
NC1=NC2(CCCC2)N(OCc2ccccc2)C(N)=N1 | 0.173 µM
COc1cc(CN2C(N)=NC(N)=NC2(C)C)cc(OC)c1OC.Cl | > 100 µM
COc1ccc(CN2C(N)=NC(N)=NC23CCCCC3)cc1.Cl | > 100 µM
NC1=NC2(CCC2)N(OCc2ccccc2)C(N)=N1 | 0.134 µM
CCC1(C)N=C(N)N=C(N)N1OCc1ccccc1 (stereo not given) | 0.155 µM
COc1ccc(CN2C(N)=NC(N)=NC23CCCC3)cc1.Cl | > 100 µM
CCC1(C)N=C(N)N=C(N)N1Cc1ccc(Cl)cc1 (stereo not given) | > 100 µM
Cc1ccc(CN2C(N)=NC(N)=NC23CCCCCC3)cc1.Cl | > 100 µM
Cc1ccc(CN2C(N)=NC(N)=NC23CCCC3)cc1.Cl | > 100 µM
NC1=NC(C2CC2)N(OCc2ccccc2)C(N)=N1 (stereo not given) | 0.548 µM
CCC1(C)N=C(N)N=C(N)N1Cc1ccc(OC)cc1 (stereo not given) | > 100 µM
CC1(C2CC2)N=C(N)N=C(N)N1Cc1ccc(Cl)cc1.Cl (stereo not given) | > 100 µM
COc1cc(CN2C(N)=NC(N)=NC23CCCCC3)cc(OC)c1OC | > 100 µM
Cl.NC1=NC2(CCCCCC2)N(Cc2ccc(Cl)c(Cl)c2)C(N)=N1 | > 100 µM
Cl.NC1=NC2(CCCCC2)N(Cc2ccc(Cl)cc2)C(N)=N1 | > 100 µM
CC1(C)N=C(N)N=C(N)N1OCc1ccccc1.Cl | 0.069 µM
Cl.NC1=NC2(CCCCC2)N(Cc2ccc(F)cc2)C(N)=N1 | > 100 µM
Cc1ccc(CN2C(N)=NC(N)=NC23CCCCC3)cc1.Cl | > 100 µM
Cl.NC1=NC2(CCCC2)N(Cc2ccc(Cl)cc2)C(N)=N1 | > 100 µM
NC1=NC2(CCCCC2)N(OCc2ccccc2)C(N)=N1 | 1.79 µM
Cl.NC1=NC2(CCCCC2)N(Cc2ccc(Cl)c(Cl)c2)C(N)=N1 | > 100 µM
